B1: library; a variant is named by its letters at N, in order (parent)
chain: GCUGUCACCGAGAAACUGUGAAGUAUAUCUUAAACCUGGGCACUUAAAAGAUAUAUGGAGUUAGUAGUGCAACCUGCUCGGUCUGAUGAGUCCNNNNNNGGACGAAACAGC

- Variants of: B1
- METHOD_DESCRIPTION: normalized RNA/DNA level without ligand (relative to sTRSVctl = 100) (log10 (% of sTRSVctl)); HEK293T; ligand: cyclic di-GMP (c-di-GMP-II aptamer); higher = less ribozyme self-cleavage, higher mRNA level
- APPLIED_CONDITIONS: reporter: mCherry (pCS4076), ligand present: no
MEASURED_PROPERTY: normalized RNA/DNA level without ligand (log10)
Just the number, please.

Solved entries (count: 5):
GCUGUCACCGAGAAACUGUGAAGUAUAUCUUAAACCUGGGCACUUAAAAGAUAUAUGGAGUUAGUAGUGCAACCUGCUCGGUCUGAUGAGUCCGAGGAUGGACGAAACAGC    1.66
GCUGUCACCGAGAAACUGUGAAGUAUAUCUUAAACCUGGGCACUUAAAAGAUAUAUGGAGUUAGUAGUGCAACCUGCUCGGUCUGAUGAGUCCUUGGCUGGACGAAACAGC    1.79
GCUGUCACCGAGAAACUGUGAAGUAUAUCUUAAACCUGGGCACUUAAAAGAUAUAUGGAGUUAGUAGUGCAACCUGCUCGGUCUGAUGAGUCCACGGAAGGACGAAACAGC    1.31
GCUGUCACCGAGAAACUGUGAAGUAUAUCUUAAACCUGGGCACUUAAAAGAUAUAUGGAGUUAGUAGUGCAACCUGCUCGGUCUGAUGAGUCCCGCUGUGGACGAAACAGC    1.78
GCUGUCACCGAGAAACUGUGAAGUAUAUCUUAAACCUGGGCACUUAAAAGAUAUAUGGAGUUAGUAGUGCAACCUGCUCGGUCUGAUGAGUCCACGCCUGGACGAAACAGC    1.64

Below: the item to evaluate.
Just so you know, measured normalized RNA/DNA level without ligand (log10) for GCUGUCACCGAGAAACUGUGAAGUAUAUCUUAAACCUGGGCACUUAAAAGAUAUAUGGAGUUAGUAGUGCAACCUGCUCGGUCUGAUGAGUCCCCAUCAGGACGAAACAGC came out at 1.66
